Each record here notes measured pKd.
target: T1, murine BACE1 ECD; test: Octet, pH 7.5, second run
T1 construct: analyte of the Octet assay (200 nM) and enzyme of the first short substrate assay
T1 sequence (single chain, as listed by the source limits assumed): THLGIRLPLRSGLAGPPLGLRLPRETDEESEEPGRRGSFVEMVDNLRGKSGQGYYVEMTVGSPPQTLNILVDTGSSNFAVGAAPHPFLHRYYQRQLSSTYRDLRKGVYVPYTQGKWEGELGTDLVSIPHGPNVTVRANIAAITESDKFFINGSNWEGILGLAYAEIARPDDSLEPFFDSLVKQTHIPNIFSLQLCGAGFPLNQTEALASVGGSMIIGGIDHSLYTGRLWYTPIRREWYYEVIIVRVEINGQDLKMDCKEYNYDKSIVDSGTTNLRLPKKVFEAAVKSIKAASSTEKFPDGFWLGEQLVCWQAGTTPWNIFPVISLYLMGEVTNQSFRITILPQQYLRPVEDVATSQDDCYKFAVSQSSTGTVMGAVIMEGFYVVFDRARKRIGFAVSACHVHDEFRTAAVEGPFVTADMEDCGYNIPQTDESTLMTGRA
Interpret pKd as the negative base-10 log of the concentration measured in mol/L.

5887 (antibody, V domains shown, anti-BACE1 IgG) VH: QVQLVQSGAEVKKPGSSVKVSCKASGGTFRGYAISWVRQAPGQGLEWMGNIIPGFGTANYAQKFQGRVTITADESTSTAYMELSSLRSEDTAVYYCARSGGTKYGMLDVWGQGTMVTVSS VL: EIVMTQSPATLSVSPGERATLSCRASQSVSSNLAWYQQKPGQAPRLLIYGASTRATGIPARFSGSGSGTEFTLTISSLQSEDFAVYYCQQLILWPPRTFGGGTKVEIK = 9.27
5905 (antibody, V domains shown, anti-BACE1 IgG) VH: QLQLQESGPGLVKPSETLSLTCTVSGGSISWSSYYWSWIRQPPGKGLEWIGSIYRSGRTYYNPSLKSRVTISVDTSKNQFSLKLSSVTAADTAVYYCARVGHGISYFDLWGRGTLVTVSS VL: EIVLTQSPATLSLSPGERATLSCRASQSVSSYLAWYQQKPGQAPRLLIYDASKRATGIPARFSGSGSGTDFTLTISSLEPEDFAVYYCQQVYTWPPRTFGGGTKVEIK = 9.40

stdin: For the binder 5896 (antibody, V domains shown, anti-BACE1 IgG) VH: QLQLQESGPGLVKPSETLSLTCTVSGGSISSSSYYWGWIRQPPGKGLEWIGSIYRSGSTYYNPSLKSRVTISVDTSKNQFSLKLSSVTAADTAVYYCARVGHGISYFDLWGRGTLVTVSS VL: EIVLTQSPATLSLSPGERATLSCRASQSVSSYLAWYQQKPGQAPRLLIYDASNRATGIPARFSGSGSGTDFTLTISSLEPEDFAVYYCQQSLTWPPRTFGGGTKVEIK , give its measured pKd value.
stdout: 9.10

Cited source: patent US20180057604A1
